assay: in vitro; details: human, hela cells, % viability
Known viability at 28.5 h, 10 µM of a selection of compounds

{"columns": ["compound", "measurement_unit", "viability at 28.5 h, 10 µM"],
 "data": [
  ["COc1ccc(CCNc2ccc(C(F)(F)F)cc2[N+](=O)[O-])cc1OC", "%", 87.4],
  ["CCN(CC)CCn1c(=N)n(CC(=O)c2cccs2)c2ccccc21 [CBK278240B]", "%", 85.1],
  ["c1ccc2cc(OCc3ccc(-c4nccnc4-c4nnn[nH]4)cc3)ccc2c1", "%", 93.9],
  ["CC(O)CNC(=O)C1(c2ccccc2)CCCC1 (stereo not drawn)", "%", 96],
  ["O=C(C1C2CCCCC21)N1CCC(Oc2cccc(F)c2)CC1 (stereo not drawn)", "%", 106],
  ["COCCN(C)S(=O)(=O)c1cc(C)c(Cl)cc1C", "%", 105],
  ["FC(F)(F)c1cc(-c2cc(Nc3ccc4[nH]ccc4c3)ncn2)cc(C(F)(F)F)c1", "%", 97.9],
  ["O=C(C1CCCO1)N1CCC(c2onc3c2CCCCC3)CC1 (stereo not drawn)", "%", 98.4],
  ["COc1ccc(C2C(C(=O)Nc3ccc(C)cc3)=C(C)Nc3ncnn32)cc1OC (stereo not drawn)", "%", 90.9]
]}

====

Readings of viability at 28.5 h, 10 µM for the listed molecules
test: in vitro; settings: human, hela cells, % viability

{"columns": ["molecule", "viability at 28.5 h, 10 µM (%)"],
 "data": [
  ["COc1ccc(CCNC(=O)N2CCCC2C(=O)O)cc1 (centres unmarked)", 116],
  ["O=c1cc(-c2cccc([N+](=O)[O-])c2)c2ccc(OCc3cc4c(cc3Cl)OCO4)cc2o1", 92.1],
  ["CCOCC(=O)N(C)C1CCN(c2ncnc3ccccc23)CC1", 89.1],
  ["Cc1cc(OCC(O)CN(Cc2ccccc2)C(C)(C)C)ccc1[N+](=O)[O-] (centres unmarked)", 99.6],
  ["COc1ccc(C(=O)c2sc3nc(C)c(C)c(C)c3c2N)cc1OC", 72.7]
]}

====

assay: in vitro; conditions: human, hela cells, % viability

{"columns": ["compound", "viability at 28.5 h, 10 µM"],
 "data": [
  ["O=C(Nc1nc2c(s1)CCCCC2)C1CCN(S(=O)(=O)c2ccc(F)cc2)C1 (centres unmarked)", "111%"],
  ["COc1ccc([C@@]23CCN(C(=O)c4ccc(Cl)c(Cl)c4)C[C@@H]2CN(C)C3)cc1OC [CBK074308T]", "99.4%"],
  ["O=C(COc1ccccc1)NC1C(=O)N2C(C(=O)O)=C(Cl)CSC12 (centres unmarked)", "92.7%"],
  ["O=C(N1CCc2ccc(S(=O)(=O)Nc3ccc(-c4nnn[nH]4)cc3)cc2C1)C(F)(F)F", "99.9%"],
  ["Cc1nc2c(ccc3nc(NC(=O)c4ccccc4)sc32)s1", "91.7%"],
  ["COC(=O)CN1C(=O)N2CCCN=C2c2ccc(Cl)cc21", "89.8%"],
  ["O=C(O)c1cccc(OCc2nnnn2-c2ccc(Br)cc2)c1", "82.7%"],
  ["CCn1cncc1CN1CC2CCCC(O)(c3ccc(C)cc3)C2C1 (centres unmarked)", "90%"],
  ["O=c1cc(CO)oc(CN2CCSCC2)c1O", "89%"],
  ["CC1(C)CN(c2ccc(S(N)(=O)=O)cc2)C1=O", "90.6%"],
  ["COC1CCN(C(=O)OCCc2cccnc2)CC1", "89.2%"],
  ["COc1cc(C(=O)NCc2ccccn2)cc(OC)c1OC", "88.3%"],
  ["Oc1ccc2[nH]c3c(c2c1)CCNC31CCN(CCOc2ccccc2)C1 (centres unmarked)", "85.9%"],
  ["O=C(NCCc1ccsc1)N1CCN(c2ccncc2)CC1", "102%"],
  ["Cc1noc(C)c1CC(=O)Nc1nc2c(cc1C#N)CCCC2", "97.1%"],
  ["COC(=O)C(O)(CC(=O)Nc1ccc(C)c(F)c1)C(F)(F)F (centres unmarked)", "103%"],
  ["N#Cc1ccccc1-c1ccc(CSc2cccc(F)c2)cc1", "107%"],
  ["CS(=O)(=O)Nc1ccc(C2=NN(S(C)(=O)=O)C(c3ccc4nccnc4c3)C2)cc1 (centres unmarked)", "83.1%"],
  ["FC(F)(F)c1ccc(Oc2ccc(-c3noc(-c4cccnc4)n3)cc2)nc1", "90.3%"],
  ["CCc1nc2ccc(C(=O)N(C)C(C)C)cn2c1N(C)CCN1CCOCC1", "95.2%"],
  ["CN(CC(=O)Nc1nnc[nH]1)S(=O)(=O)c1ccc(Br)cc1", "91.1%"],
  ["CCc1nccn1CCC(=O)NC1CCN(Cc2ccncc2)CC1", "107%"],
  ["COc1cc(CNc2nc(Br)cn3ccnc23)cc(OC)c1OC", "110%"],
  ["Cc1c(NC(=O)c2ccc([N+](=O)[O-])o2)cccc1-c1nc2ccccc2s1", "85.6%"],
  ["NNC(=O)c1cc2ccccc2cc1NS(=O)(=O)c1ccccc1", "84.4%"],
  ["Cn1cccc1C1(O)CCCC2CN(C(=O)c3ccco3)CC21 (centres unmarked)", "99.9%"],
  ["CC[C@H]1CN(C(=O)C2CC2)CC[C@H]1CC(=O)NCc1ccc2c(c1)OCO2", "91.9%"],
  ["CCNC(=O)N1CC2(CCN(C/C=C/c3ccccc3)CC2)c2ccccc21 [CBK144596T]", "97.6%"],
  ["O=C(NCC(O)c1ccc([N+](=O)[O-])cc1)c1cccc(S(=O)(=O)N2CCCC2)c1 (centres unmarked)", "119%"],
  ["Cc1ccc(SCCN2CCN(Cc3ccccc3)CC2)cc1 [CBK268653G]", "99.1%"],
  ["CC(=O)Nc1ccc(S(=O)(=O)NCCCc2ccccc2)cc1", "89.8%"],
  ["Cc1nc(CC(=O)NC(Cc2ccsc2)c2cccnc2)cs1 (centres unmarked)", "110%"],
  ["O=C(O)c1ccc(S(=O)(=O)c2ccc(C(=O)O)c(C(=O)O)c2)cc1C(=O)O", "93.1%"],
  ["O=C(COc1ccc(Br)cc1C(=O)O)Nc1ccc(F)cc1", "92%"],
  ["O=C(CN1C(=O)c2ccccc2S1(=O)=O)Nc1ccccc1C(=O)N1CCOCC1", "93.3%"],
  ["CC(NC(=O)Cn1ccnc1-c1ccccc1)c1ccccn1 (centres unmarked)", "103%"],
  ["CC[C@H](Cn1c(=O)oc2ccccc21)NC(=O)c1ccco1", "86.7%"],
  ["COC(=O)CN1C(=O)S/C(=C/c2cc(C)n(-c3ccc(S(N)(=O)=O)cc3)c2C)C1=O", "95.9%"]
]}
